# run-description: Octanol/water partition coefficient, shake-flask method and UV/Vis
reported-property: logP at 30 min

Just so you know, measured logP at 30 min for O=C1C=CC(=O)c2ccccc21 [Naphthoquinone, reference compound] came out at 1.8

###

# Test system: Human breast (MCF‐7) carcinoma cell line
# run-description: MTT assay, 2D cell culture
# Assay type: cell-based
# details: MCF‐7 cells, 72 h
reported-property: IC50 (µM)
Please state the figure in µM; there is no need to write the unit.

Form: compound = N.N.[Cl][Pt][Cl] [cisplatin, reference compound] ; IC50 = 8.8

###

# Tested on: human melanoma cells (A375)
# run-description: MTT assay, 2D cell culture
# Type: cell-based
# details: 72 h
reported-property: IC50
State the value with its unit after it.

Note to self: IC50 recorded for N.N.[Cl][Pt][Cl] [cisplatin, reference compound] was 2.1 µM

###

# Test system: Human breast (MCF‐7) carcinoma cell line
# run-description: MTT assay, 2D cell culture
# Assay type: cell-based
# details: Homo sapiens, MCF7, MCF‐7 cells, 72 h
# Method: Compounds [2B]BF4, [2C]CF3SO3, [2D]CF3SO3 and [3F]CF3SO3 were dissolved in water while the other compounds were dissolved in the minimum DMSO amount prior to cell culture testing. A calculated amount of the stock drug DMSO solution was added to the cell culture media to reach a final maximum DMSO concentration of 0.5 %, which had no effects on cell viability. Cell cultures. […] MTT assay. The growth inhibitory effect towards tumour cells was evaluated by means of MTT assay as previously described.[57] […]
reported-property: IC50 (µM)
I only need the number, in µM, no unit after it.

Lab note: COc1cccc2c1C(=O)c1c(O)c3c(c(O)c1C2=O)C[C@@](O)(C(=O)CO)C[C@@H]3O[C@H]1C[C@H](N)[C@H](O)[C@H](C)O1 [doxorubicin, reference compound] gave IC50 of 0.2

Each recorded value in this set is attributed to paper PMC8362065.
